compounds and their reported inhibition
# Tested System: Tyrosine-protein kinase HCK (Homo sapiens) (UniProt P08631)
# Sequence (P08631 whole entry, looked up): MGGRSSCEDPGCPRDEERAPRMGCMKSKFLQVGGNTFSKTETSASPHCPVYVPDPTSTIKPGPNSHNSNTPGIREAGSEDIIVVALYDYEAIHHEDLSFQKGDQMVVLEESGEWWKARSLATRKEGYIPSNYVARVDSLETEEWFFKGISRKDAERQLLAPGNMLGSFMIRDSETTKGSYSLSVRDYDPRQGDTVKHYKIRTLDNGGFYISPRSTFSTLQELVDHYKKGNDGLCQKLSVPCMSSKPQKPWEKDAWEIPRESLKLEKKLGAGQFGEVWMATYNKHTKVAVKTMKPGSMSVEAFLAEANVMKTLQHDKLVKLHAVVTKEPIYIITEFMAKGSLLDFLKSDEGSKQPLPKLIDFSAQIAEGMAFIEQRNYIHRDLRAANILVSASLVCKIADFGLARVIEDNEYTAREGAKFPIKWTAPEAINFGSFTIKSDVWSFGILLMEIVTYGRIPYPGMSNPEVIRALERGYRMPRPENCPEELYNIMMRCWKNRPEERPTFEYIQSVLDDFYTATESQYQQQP
# Assay Overview: inhibitors of Nef-activated human Hck kinase, primary screen, biochemical, Z-Lyte FRET, 384-well, Hck-YEEI (AID 463187);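 note: 0% = DMSO with Hck plus Nef and 100% = Hck alone without Nef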
# Stated Conditions: Recombinant Hck-YEEI plus Nef, Z-Lyte FRET kinase assay; at 20 µM; stronger effect = higher value
Screen size: about 220,000 compounds; about 1,500 (0.68%) were called active. For the sample, actives were picked, then their nearest neighbours and some compounds at random.

{"Compound": "Clc1ccc(-n2nnnc2CN2CCCCC2)cc1Cl", "inhibition [%]": 2.13}
{"Compound": "O=C(Cc1ccccc1)Nc1cccc(C(=O)N/N=C/c2ccco2)c1", "inhibition [%]": 54.9}
{"Compound": "COc1cccc(C2Nc3cccc4cccc(c34)N2)c1", "inhibition [%]": 21.8}
{"Compound": "COc1cccc(C(=O)N2CCCC(CCC(=O)NCc3ccc(F)c(F)c3)C2)c1 (stereo unspecified)", "inhibition [%]": 18.6}
{"Compound": "O=C(/C=C/c1ccc(F)cc1)Nc1cccc(S(=O)(=O)Nc2cccc(C(F)(F)F)c2)c1", "inhibition [%]": 2.87}
{"Compound": "CCS(=O)(=O)C1=NSC2=NC(=O)/C(=C\\c3cc(C)n(-c4cccc(OC)c4)c3C)C(=N)N21", "inhibition [%]": 55.1}
{"Compound": "CC(C)Cc1nn2c(=O)cc(O)nc2s1", "inhibition [%]": 1.45}
{"Compound": "Cc1ccc(CN(C(=O)c2sc3ccccc3c2Cl)C2CCS(=O)(=O)C2)cc1 (stereo unspecified)", "inhibition [%]": 3.1}
{"Compound": "O=C(NCc1ccccc1)C1CCCN(S(=O)(=O)c2cccs2)C1 (stereo unspecified)", "inhibition [%]": -1.98}
{"Compound": "CCCCN(CCCC)CC(O)Cn1c2ccccc2c(=O)c2ccccc21 (stereo unspecified)", "inhibition [%]": 119}
{"Compound": "O=C(COC(=O)c1ccccc1C(=O)N1CCN(c2ccccc2)CC1)NCc1ccccc1", "inhibition [%]": -5.15}
{"Compound": "COC(=O)c1ccc(OCC(O)CN(CCO)CC(O)Cn2ccc3ccccc32)cc1 (stereo unspecified)", "inhibition [%]": 60.4}
{"Compound": "COc1ccc(-c2cc3nc(C)c(CCC(=O)NC(C)CCc4ccco4)c(C)n3n2)c(OC)c1 (stereo unspecified)", "inhibition [%]": -1.24}
{"Compound": "CCc1ccc(CNC(=O)C2CCCN(c3nc4ccccc4o3)C2)cc1 (stereo unspecified)", "inhibition [%]": -20.1}
{"Compound": "COc1ccc(C(=O)O/N=C(\\N)Cc2ccc(Cl)cc2Cl)cc1OC", "inhibition [%]": 3.19}
{"Compound": "C=C(C)COc1ccc(-c2n[nH]c(C)c2-c2ccccc2OC)c(O)c1", "inhibition [%]": 12.1}

* * *

# Tested System: Tyrosine-protein kinase HCK (Homo sapiens) (UniProt P08631)
# Assay Overview: inhibitors of Nef-activated human Hck kinase, primary screen, biochemical, Z-Lyte FRET, 384-well, Hck-YEEI (AID 463187);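 note: 0% = DMSO with Hck plus Nef and 100% = Hck alone without Nef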
# Stated Conditions: Recombinant Hck-YEEI plus Nef, Z-Lyte FRET kinase assay; at 20 µM
In all, about 220,000 compounds went through this assay and about 1,500 (0.68%) were called active.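 How the source made its calls: active means Hck-Nef kinase inhibition above about 50% (limit read from the data); inactive means inhibition below that limit.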 This is one part of a sample in which actives are shown more often than they occur.
Outcome codes: yes = active, no = inactive

{"Entry Smiles": "Cc1ccc2nc(-c3ccncc3)cc(C(=O)Nc3ccc(OC(F)F)cc3)c2c1", "Classification": "yes"}
{"Entry Smiles": "CC(=O)Nc1ccc(Nc2c3ccccc3nc3ccccc23)cc1", "Classification": "no"}
{"Entry Smiles": "O=[N+]([O-])c1cccc(Nc2c3ccccc3nc3ccccc23)c1", "Classification": "yes"}
{"Entry Smiles": "Clc1ccccc1CSc1nnc(-c2ccco2)c(-c2ccco2)n1", "Classification": "no"}
{"Entry Smiles": "COc1ccccc1C(=O)Oc1ccc(N2C(=O)CCC2=O)cc1", "Classification": "no"}
{"Entry Smiles": "Cc1ccc2nc(-c3ccncc3)cc(C(=O)Nc3ccc4c(c3)OCCO4)c2c1", "Classification": "no"}
{"Entry Smiles": "O=C(CCCCCNC(=O)c1ccccc1)N/N=C/c1ccccc1", "Classification": "no"}
{"Entry Smiles": "CC(C)(C)OC(=O)NCCCCCC(=O)N/N=C/c1coc2ccccc2c1=O", "Classification": "yes"}
{"Entry Smiles": "CCCNC(=O)N1CCN(C(=O)NCCC)CC1", "Classification": "no"}
{"Entry Smiles": "O=C(N/N=C/c1coc2ccccc2c1=O)c1cc2ccccc2o1", "Classification": "no"}
